Quick reference: koff of the listed items.
Biological target: Clade C DU172.17 gp120 protein (HIV-1 Clade C, DU172.17)
Assay: BLI (Octet), IgG on anti-hIgG Fc sensor, gp120 analyte, 1:1 fit

>  <binder>
Hydro2 (antibody, V domains shown) VH: ADLVQSGAVVKKPGDSVRISCEAQGYRFPDYIIHWIRRAPGQGPEWMGWMNPMGGQVNIPQKFQGRVSMTRDTSIETAFLDLRGLKSDDTAVYYCVRDRSNGSGKRFESSNWFLDLWGRGTAVTIQS VL: QSALTQPRSVSASPGQSVTISCTGTHNLVSWCQHQPGRAPKLLIYDFNKRPSGVPDRFSGSGSGGTASLTITGLQDDDDAEYFCWAYENFGGGTKLTVL

>  <koff, s⁻¹>
0.000974

$$$$
>  <binder>
Germ23 (antibody, V domains shown) VH: QVQLVQSGAEVKKPGASVKVSCEASGYRFPDYIIHWIRRAPGQGPEWMGWMNPMGGQVNIPWKFQGRVSMTRDTSIETAYMELRGLRSDDTAVYYCVRDRSNGSGKRFESSNWFLDLWGRGTLVTVSS VL: QSALTQPRSVSGSPGQSVTISCTGTHNLVSWCQHHPGKAPKLMIYDFNKRPSGVPDRFSGSGSGGTASLTISGLQAEDEAEYFCWAYEAFGGGTKLTVL

>  <koff, s⁻¹>
0.000368

$$$$
